biological target: Adenosine receptor A2a (Homo sapiens); test: Displacement of [3H]ZM241385 from human adenosine A2A receptor extracted from human HeLa cell membrane assessed as inhibition of [3H]ZM241385 binding at 10 uM incubated for 30 mins by microplate beta scintillation counter relative to control; type: cell membranes
The label depends only on inhibition: yes (1) if it is at least 20%, no (0) if it is smaller.

Please review the following examples before continuing.
1) O[C@@H]1[C@H](O)C[Se][C@H]1n1cnc2c(NC3CCCC3)nc(Cl)nc21 no (0)
2) Nc1ncnc2c1ncn2[C@@H]1[Se]C[C@@H](O)[C@H]1O yes (1)
3) O[C@@H]1[C@H](O)C[Se][C@H]1n1cnc2c(NCc3cccc(F)c3)ncnc21 no (0)
4) O[C@@H]1[C@H](O)C[Se][C@H]1n1cnc2c(NCc3cccc(I)c3)nc(Cl)nc21 yes (1)
5) CNc1ncnc2c1ncn2[C@@H]1[Se]C[C@@H](O)[C@H]1O no (0)

# next compound below
IN: Quick check, inhibition >= 20%? O[C@@H]1[C@H](O)C[Se][C@H]1n1cnc2c(NCc3cccc(Cl)c3)ncnc21
OUT: yes (1)

###

# inhibition per record follows
biological target: Adenosine receptor A2a (Homo sapiens); assay: Displacement of [3H]ZM241385 from human adenosine A2A receptor extracted from human HeLa cell membrane assessed as inhibition of [3H]ZM241385 binding at 10 uM incubated for 30 mins by microplate beta scintillation counter relative to control; format: cell membranes
Give the number; % is assumed, so skip it.

1. O[C@@H]1[C@H](O)C[Se][C@H]1n1cnc2c(NCc3cccc(F)c3)nc(Cl)nc21 7

IN: What inhibition value was documented for this compound, O[C@@H]1[C@H](O)C[Se][C@H]1n1cnc2c(NCc3cccc(Br)c3)ncnc21 ?
OUT: 28

IN: What inhibition value was documented for this compound, CCNc1nc(Cl)nc2c1ncn2[C@@H]1[Se]C[C@@H](O)[C@H]1O ?
OUT: 3

IN: What inhibition value was documented for this compound, O[C@@H]1[C@H](O)C[Se][C@H]1n1cnc2c(NCc3cccc(Br)c3)nc(Cl)nc21 ?
OUT: 35

IN: What inhibition value was documented for this compound, O[C@@H]1[C@H](O)C[Se][C@H]1n1cnc2c(NC3CCCC3)ncnc21 ?
OUT: 16

###

# inhibition per record follows
Molecular target: Adenosine receptor A1 (Homo sapiens) (UniProt P30542)
Sequence (whole entry): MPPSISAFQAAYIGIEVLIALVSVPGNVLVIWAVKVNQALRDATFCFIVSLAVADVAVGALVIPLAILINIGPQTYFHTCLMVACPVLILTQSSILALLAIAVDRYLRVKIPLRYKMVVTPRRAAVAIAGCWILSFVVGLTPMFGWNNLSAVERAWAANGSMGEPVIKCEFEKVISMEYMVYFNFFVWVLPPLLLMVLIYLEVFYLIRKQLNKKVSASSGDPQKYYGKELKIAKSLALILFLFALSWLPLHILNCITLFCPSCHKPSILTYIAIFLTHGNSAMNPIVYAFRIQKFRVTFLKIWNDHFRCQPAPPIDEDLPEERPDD
Test: Displacement of [3H]DPCPX from human adenosine A1 receptor extracted from CHO cell membrane assessed as inhibition of [3H]DPCPX binding at 10 uM incubated for 60 mins by microplate beta scintillation counter relative to control
Format: cell membranes
Give the number; % is assumed, so skip it.

// solved cases for inhibition follow
1) O[C@@H]1[C@H](O)C[Se][C@H]1n1cnc2c(NC3CCCC3)ncnc21 39
2) CCNc1ncnc2c1ncn2[C@@H]1[Se]C[C@@H](O)[C@H]1O 25
3) O[C@@H]1[C@H](O)C[Se][C@H]1n1cnc2c(NC3CCCC3)nc(Cl)nc21 54
4) CNc1ncnc2c1ncn2[C@@H]1[Se]C[C@@H](O)[C@H]1O 7
5) O[C@@H]1[C@H](O)C[Se][C@H]1n1cnc2c(NCc3cccc(Br)c3)nc(Cl)nc21 62
6) O[C@@H]1[C@H](O)C[Se][C@H]1n1cnc2c(NCc3cccc(Cl)c3)nc(Cl)nc21 66

IN: What inhibition value was documented for this molecule, Nc1nc(Cl)nc2c1ncn2[C@@H]1[Se]C[C@@H](O)[C@H]1O ?
OUT: 22

IN: What inhibition value was documented for this molecule, O[C@@H]1[C@H](O)C[Se][C@H]1n1cnc2c(NCc3cccc(Cl)c3)ncnc21 ?
OUT: 32

IN: What inhibition value was documented for this molecule, O[C@@H]1[C@H](O)C[Se][C@H]1n1cnc2c(NCc3cccc(I)c3)nc(Cl)nc21 ?
OUT: 57

IN: What inhibition value was documented for this molecule, O[C@@H]1[C@H](O)C[Se][C@H]1n1cnc2c(NCc3cccc(F)c3)ncnc21 ?
OUT: 12

IN: What inhibition value was documented for this molecule, O[C@@H]1[C@H](O)C[Se][C@H]1n1cnc2c(NCc3cccc(F)c3)nc(Cl)nc21 ?
OUT: 23

###

target: Adenosine receptor A2a (Homo sapiens); test: Displacement of [3H]ZM241385 from human adenosine A2A receptor extracted from human HeLa cell membrane assessed as inhibition of [3H]ZM241385 binding at 10 uM incubated for 30 mins by microplate beta scintillation counter relative to control; assay type: cell membranes
# inhibition per record follows
Give the number; % is assumed, so skip it.

1) Nc1nc(Cl)nc2c1ncn2[C@@H]1[Se]C[C@@H](O)[C@H]1O 12
2) O[C@@H]1[C@H](O)C[Se][C@H]1n1cnc2c(NC3CC3)nc(Cl)nc21 6
3) O[C@@H]1[C@H](O)C[Se][C@H]1n1cnc2c(NC3CC3)ncnc21 9

Now turn to the next compound.
IN: What inhibition value was documented for this compound, O[C@@H]1[C@H](O)C[Se][C@H]1n1cnc2c(NCc3cccc(I)c3)ncnc21 ?
OUT: 19

###

# inhibition per record follows
target: Adenosine receptor A1 (Homo sapiens) (UniProt P30542); test: Displacement of [3H]DPCPX from human adenosine A1 receptor extracted from CHO cell membrane assessed as inhibition of [3H]DPCPX binding at 10 uM incubated for 60 mins by microplate beta scintillation counter relative to control; format: cell membranes
Field: value (include unit after the number)

// solved cases for inhibition follow
1. O[C@@H]1[C@H](O)C[Se][C@H]1n1cnc2c(NCc3cccc(I)c3)ncnc21 25%
2. CNc1nc(Cl)nc2c1ncn2[C@@H]1[Se]C[C@@H](O)[C@H]1O 14%

Now turn to the next compound.
IN: What inhibition value was documented for this compound, Nc1ncnc2c1ncn2[C@@H]1[Se]C[C@@H](O)[C@H]1O ?
OUT: 10%
